- System: SNU-16
- Experimental Details: Viability assay (Cell Titer-Glo)
- Assay type: cell-based, human
- Experimental Conditions: Homo sapiens, SNU-16, 144 h, Table 2; six days; geometric mean; N ≥ 3; CEACAM5 Positive
pIC50: −log10 of the molar value.
Readout Label: pIC50

>>> value_observed("CC[C@@]1(O)C(=O)OCc2c1cc1n(c2=O)Cc2c-1nc1cc(F)c(C)c3c1c2[C@@H](N)CC3 [PAYLOAD, reference compound]")
9.36

// data source = patent US20250179210A1
